// provenance: patent US7851220B2

As shown below, each of these compounds has a reported EC50 value.
# EXPERIMENTAL SYSTEM: GAL4 DBD (1-147)-CfEcR(DEF)/VP16AD-βRXREF-LmUSPEF (Choristoneura fumiferana, UniProt O77240)
# Construct: The wild-type D, E, and F domains from spruce budworm Choristoneura fumiferana EcR (“CfEcR-DEF”)
# PROCEDURE DETAILS: 27-63 Assay (luciferase reporter gene assay in stably transfected CHO cell clone)
MEASUREMENT NAME: EC50 (nM)

{"columns": ["COMPOUND", "UNIT OF MEASUREMENT", "CENSORING QUALIFIER", "VALUE MEASURED"],
 "data": [
  ["Cc1ccc(S(=O)(=O)OCC2COc3ccc(C(=O)NN(C(=O)c4cc(C)cc(C)c4)C(C)(C)C)c(C)c3O2)cc1 (stereo not shown)", "nM", ">", 33000],
  ["Cc1cc(C)cc(C(=O)N(NC(=O)c2ccc3c(c2C)OC(CC#N)CO3)C(C)(C)C)c1 (stereo not shown)", "nM", "=", 4220],
  ["Cc1cc(C)cc(C(=O)N(NC(=O)c2ccc3c(c2C)OC(CO)CO3)C(C)(C)C)c1 (stereo not shown)", "nM", "=", 1850],
  ["CCCCCCC(N(NC(=O)c1cccc(OC)c1C)C(=O)c1cc(C)cc(C)c1)C(C)(C)C (stereo not shown)", "nM", "=", 100],
  ["CSCC1COc2ccc(C(=O)NN(C(=O)c3cc(C)cc(C)c3)C(C)(C)C)c(C)c2O1 (stereo not shown)", "nM", "=", 2900],
  ["Cc1cc(C)cc(C(=O)N(NC(=O)c2ccc3c(c2C)OC(C=O)CO3)C(C)(C)C)c1 (stereo not shown)", "nM", "=", 2680]
]}

====

# EXPERIMENTAL SYSTEM: GAL4 DBD (1-147)-CfEcR(DEF)/VP16AD-βRXREF-LmUSPEF (Choristoneura fumiferana, UniProt O77240)
# Construct: The wild-type D, E, and F domains from spruce budworm Choristoneura fumiferana EcR (“CfEcR-DEF”)
# PROCEDURE DETAILS: 27-63 Assay (luciferase reporter gene assay in stably transfected CHO cell clone)
Label criterion met when EC50 < 3000 nM; otherwise criterion not met.

{"columns": ["COMPOUND", "GROUP LABEL"],
 "data": [
  ["COc1cccc(C(=O)NN(C(=O)c2cc(C)cc(C)c2)C(/C=C(\\C)C(C)(C)C)C(C)(C)C)c1C (centres unmarked)", "criterion met"],
  ["Cc1cc(C)cc(C(=O)N(NC(=O)c2ccc3c(c2C)OC(CCN)CO3)C(C)(C)C)c1 (centres unmarked)", "criterion not met"],
  ["CNC(=O)C1COc2ccc(C(=O)NN(C(=O)c3cc(C)cc(C)c3)C(C)(C)C)c(C)c2O1 (centres unmarked)", "criterion not met"],
  ["Cc1cc(C)cc(C(=O)N(NC(=O)c2ccc3c(c2C)OC(COC(=O)Nc2ccccc2)CO3)C(C)(C)C)c1 (centres unmarked)", "criterion met"],
  ["Cc1cc(C)cc(C(=O)N(NC(=O)c2ccc3c(c2C)OC(CF)CO3)C(C)(C)C)c1 (centres unmarked)", "criterion met"],
  ["Cc1cc(C)cc(C(=O)N(NC(=O)c2ccc3c(c2C)O[C@@H](CS(C)(=O)=O)CO3)C(C)(C)C)c1", "criterion not met"],
  ["CCCCCCC(N(NC(=O)c1ccc(CC)cc1)C(=O)c1cccnc1OC)C(C)(C)C (centres unmarked)", "criterion not met"],
  ["CCCCC(N(NC(=O)c1cccc(OC)c1C)C(=O)c1cc(C)cc(C)c1)C(C)(C)CCC (centres unmarked)", "criterion met"]
]}

====

# EXPERIMENTAL SYSTEM: GAL4 DBD (1-147)-CfEcR(DEF)/VP16AD-βRXREF-LmUSPEF (Choristoneura fumiferana, UniProt O77240)
# Construct: The wild-type D, E, and F domains from spruce budworm Choristoneura fumiferana EcR (“CfEcR-DEF”)
# PROCEDURE DETAILS: 27-63 Assay (luciferase reporter gene assay in stably transfected CHO cell clone)
pEC50: −log10 of the molar value.
MEASUREMENT NAME: pEC50

{"columns": ["COMPOUND", "VALUE MEASURED"],
 "data": [
  ["Cc1cc(C)cc(C(=O)N(NC(=O)c2ccc3c(c2C)OC(C(=O)O)CO3)C(C)(C)C)c1 (stereo not drawn) [RG-115805]", "< 4.48"],
  ["Cc1cc(C)cc(C(=O)N(NC(=O)c2ccc3c(c2C)OC(C=NO)CO3)C(C)(C)C)c1 (stereo not drawn) [RG-115814]", 6.49],
  ["Cc1cc(C)cc(C(=O)N(NC(=O)c2ccc3c(c2C)O[C@@H](CO[Si](C)(C)C(C)(C)C)CO3)C(C)(C)C)c1 [RG-115790]", "< 4.48"]
]}

====

# EXPERIMENTAL SYSTEM: GAL4 DBD (1-147)-CfEcR(DEF)/VP16AD-βRXREF-LmUSPEF (Choristoneura fumiferana, UniProt O77240)
# Construct: The wild-type D, E, and F domains from spruce budworm Choristoneura fumiferana EcR (“CfEcR-DEF”)
# PROCEDURE DETAILS: 27-63 Assay (luciferase reporter gene assay in stably transfected CHO cell clone)
# Type: cell-based
# MEASUREMENT SETUP: maximum fold induction at any concentration relative to maximum fold induction of GS-E ligand; CHO 27-63 clone, luciferase, 48 h
# Experimental: Stably transfected cells were selected by Zeocin resistance. Individually isolated CHO cell clones were transiently transfected with a GAL4 RE-luciferase reporter (pFR Luc). 27-63 clone was selected using Hygromycin. […] Luciferase reporter gene expression was measured 48 h after cell treatment using Bright-Glo™ Luciferase Assay System from Promega (E2650). Luminescence was detected at room temperature using a Dynex MLX microtiter plate luminometer. […]
Known relative Max F1 27-63 Assay of a selection of compounds
MEASUREMENT NAME: relative Max F1 27-63 Assay

{"columns": ["COMPOUND", "VALUE MEASURED"],
 "data": [
  ["CCCCCCC(N(NC(=O)c1cccc(OC)c1C)C(=O)c1cc(C)cc(C)c1)C(C)(C)C (stereo not drawn) [RG-115853]", 0.898],
  ["CCCCCCC(N(NC(=O)c1ccc(CC)cc1)C(=O)c1cccnc1OC)C(C)(C)C (stereo not drawn) [RG-115845]", 0.52],
  ["Cc1cc(C)cc(C(=O)N(NC(=O)c2ccc3c(c2C)OC(CF)CO3)C(C)(C)C)c1 (stereo not drawn) [RG-115815]", 0.738],
  ["Cc1cc(C)cc(C(=O)N(NC(=O)c2ccc3c(c2C)OC(COC(=O)Nc2ccccc2)CO3)C(C)(C)C)c1 (stereo not drawn) [RG-115808]", 2.37],
  ["CNC(=O)C1COc2ccc(C(=O)NN(C(=O)c3cc(C)cc(C)c3)C(C)(C)C)c(C)c2O1 (stereo not drawn) [RG-115811]", 0.24],
  ["CCCCCCC(N(NC(=O)c1ccc(CC)cc1)C(=O)c1cc(OC)c(C)c(OC)c1)C(C)(C)C (stereo not drawn) [RG-115844]", 0.352],
  ["COC(=O)[C@H]1COc2ccc(C(=O)NN(C(=O)c3cc(C)cc(C)c3)C(C)(C)C)c(C)c2O1 [RG-115806]", 0.25],
  ["Cc1cc(C)cc(C(=O)N(NC(=O)c2ccc3c(c2C)O[C@@H](CO[Si](C)(C)C(C)(C)C)CO3)C(C)(C)C)c1 [RG-115790]", 0.0],
  ["Cc1cc(C)cc(C(=O)N(NC(=O)c2ccc3c(c2C)OC(C(=O)Oc2c(F)c(F)c(F)c(F)c2F)CO3)C(C)(C)C)c1 (stereo not drawn) [RG-115810]", 1.23],
  ["CCCCC(N(NC(=O)c1cccc(OC)c1C)C(=O)c1cc(C)cc(C)c1)C(C)(C)CCC (stereo not drawn) [RG-115877]", 1.48],
  ["COc1cccc(C(=O)NN(C(=O)c2cc(C)cc(C)c2)C(/C=C(\\C)C(C)(C)C)C(C)(C)C)c1C (stereo not drawn) [RG-115855]", 1.16],
  ["Cc1ccc(S(=O)(=O)OCC2COc3ccc(C(=O)NN(C(=O)c4cc(C)cc(C)c4)C(C)(C)C)c(C)c3O2)cc1 (stereo not drawn) [RG-115813]", 0.01],
  ["CCCCCCC(N(NC(=O)c1cccc(OC)c1C)C(=O)c1cc(OC)c(C)c(OC)c1)C(C)(C)C (stereo not drawn) [RG-115854]", 0.917],
  ["Cc1cc(C)cc(C(=O)N(NC(=O)c2ccc3c(c2C)OC(C=NO)CO3)C(C)(C)C)c1 (stereo not drawn) [RG-115814]", 1.0],
  ["CSCC1COc2ccc(C(=O)NN(C(=O)c3cc(C)cc(C)c3)C(C)(C)C)c(C)c2O1 (stereo not drawn) [RG-115817]", 0.95]
]}
